TEST DESCRIPTION: Bioavailability in […] rat at 3 mg/kg, iv
Type: ADME, organism-based
APPLIED CONDITIONS: in vivo
METRIC: bioavailability (%)

OC[C@@H]1[C@@H](O)[C@H](O)[C@@H](O)CN1CCCCCOCC12CC3CC(CC(C3)C1)C2; 41
OC[C@H]1[C@@H](O)[C@H](O)[C@@H](O)CN1CCCCCOCC12CC3CC(CC(C3)C1)C2; 52

====

TEST DESCRIPTION: Cmax in […] rat at 10 mg/kg, po
APPLIED CONDITIONS: in vivo
METRIC: Cmax (ng/mL)

OC[C@H]1[C@@H](O)[C@H](O)[C@@H](O)CN1CCCCCOCC12CC3CC(CC(C3)C1)C2; 1600
OC[C@@H]1[C@@H](O)[C@H](O)[C@@H](O)CN1CCCCCOCC12CC3CC(CC(C3)C1)C2; 1200

====

TEST DESCRIPTION: AUC (infinity) in […] rat at 10 mg/kg, po
APPLIED CONDITIONS: plasma
METRIC: AUC(0-inf) (ng·h/mL)

OC[C@@H]1[C@@H](O)[C@H](O)[C@@H](O)CN1CCCCCOCC12CC3CC(CC(C3)C1)C2; 3400
OC[C@H]1[C@@H](O)[C@H](O)[C@@H](O)CN1CCCCCOCC12CC3CC(CC(C3)C1)C2; 3300

====

TEST DESCRIPTION: Half life in […] rat at 3 mg/kg, iv
Format: ADME, organism-based
Parameters: dose 3 mg/kg, route intravenous
APPLIED CONDITIONS: in vivo
METRIC: half-life (h)

1 = OC[C@@H]1[C@@H](O)[C@H](O)[C@@H](O)CN1CCCCCOCC12CC3CC(CC(C3)C1)C2
2 = OC[C@H]1[C@@H](O)[C@H](O)[C@@H](O)CN1CCCCCOCC12CC3CC(CC(C3)C1)C2
(Q) For the pair 1 and 2 , which entry has the numerically smaller recorded half-life? # respond with the chosen item's label
(A) 2
